Consider the following compounds; for each one, report its EC50.
biological target: Gal4-RORγ-LBD (Homo sapiens); construct: expressed in transfected cells; host or cells: HEK-293 cells (pcDNA3.1neo plasmid); test: Gal4-RORγ Luciferase Reporter Assay in HEK-293T Cells; assay type: cell-based; conditions: HEK-293 cells, 2 μM ursolic acid
Sequence (P51449 269-508 limits assumed): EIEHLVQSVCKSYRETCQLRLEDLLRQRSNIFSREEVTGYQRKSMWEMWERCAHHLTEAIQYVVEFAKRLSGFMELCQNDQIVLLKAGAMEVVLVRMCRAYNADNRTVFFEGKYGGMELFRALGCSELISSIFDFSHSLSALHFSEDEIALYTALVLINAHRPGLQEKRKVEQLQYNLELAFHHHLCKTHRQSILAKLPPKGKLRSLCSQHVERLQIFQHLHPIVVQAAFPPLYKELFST

// known answers, use as guide
COMPOUND: O=C(O)C1(C[C@H]2CN(S(=O)(=O)c3cccc(C(F)(F)F)c3)c3cc(-c4cc(Cl)cc(F)c4F)ccc3O2)CCOCC1 [Compound 78W]
EC50: < 500 nM
//
COMPOUND: COc1cc(Cl)cc(-c2ccc3c(c2)N(S(=O)(=O)c2cccc(C(F)(F)F)c2)C[C@H](CC(C)(C)C(=O)O)O3)c1 [Compound 32AH]
EC50: < 500 nM
//
COMPOUND: C[C@]1(C(=O)O)C[C@@H](C[C@H]2CN(S(=O)(=O)c3cccc(C(F)(F)F)c3)c3cc(-c4cc(F)cc(OC(F)F)c4)ccc3O2)C1
EC50: 500 to 5000 nM
//
COMPOUND: O=C(O)[C@@]1(C[C@H]2CN(S(=O)(=O)c3cccc(C(F)(F)F)c3)c3cc(-c4cc(F)ccc4F)ccc3O2)CCNC1=O [Compound 77B]
EC50: < 500 nM
//
COMPOUND: O=C(NC[C@H]1CN(S(=O)(=O)c2cccc(C(F)(F)F)c2)c2cc(-c3cc(F)ccc3F)ccc2O1)N1CCOCC1
EC50: < 500 nM

Working through the 4 compounds below one at a time, give EC50 for each.
1. Cc1cccc(C)c1-c1ccc2c(c1)N(S(=O)(=O)c1cccc(C(F)(F)F)c1)C[C@H](CC(C)(C)C(=O)O)O2 [Compound 32BA]
2. CC(C)(F)C(=O)NC[C@H]1CN(S(=O)(=O)c2cccc(C(F)(F)F)c2)c2cc(-c3cc(F)cc(OC(F)F)c3)ccc2O1 [Compound 30DG]
3. COc1cc(S(=O)(=O)N2C[C@H](CCC(C)(C)C(=O)O)Oc3ccc(-c4cccc(C(F)(F)F)n4)cc32)ccc1F [Compound 32AJ]
4. O=C(NC[C@H]1CN(S(=O)(=O)c2cccc(C(F)(F)F)c2)c2cc(-c3cccc(F)c3Cl)ccc2O1)C(=O)C1CC1 [Compound 30CA]

1: 500 to 5000 nM; 2: 500 to 5000 nM; 3: < 500 nM; 4: < 500 nM

Working through the 4 compounds below one at a time, give EC50 for each.
1. O=C(O)[C@@]1(C[C@H]2CN(S(=O)(=O)c3cccc(C(F)(F)F)c3)c3cc(-c4cc(F)cc(OC(F)F)c4)ccc3O2)C[C@@H](O)[C@@H](O)C1
2. CC(=O)N1CC(C[C@H]2CN(S(=O)(=O)c3cccc(C(F)(F)F)c3)c3cc(-c4cc(F)cc(OC(F)F)c4)ccc3O2)C1
3. O=C(O)[C@@H]1C[C@H]1[C@H]1CN(S(=O)(=O)c2cccc(C(F)(F)F)c2)c2cc(-c3cc(F)ccc3F)ccc2O1
4. O=C(O)C1(C[C@H]2CN(S(=O)(=O)c3cccc(C(F)(F)F)c3)c3cc(-c4cccc(Cl)c4F)ccc3O2)CCC1 [Compound 32BF]

1: 500 to 5000 nM; 2: < 500 nM; 3: < 500 nM; 4: < 500 nM
